System: gastric mucosal non-protein sulfhydryls, induced by 80% ethanol
Test: Estimation of non-protein sulfhydryls (NP-SH)
Format: in vivo, Albino Wistar rats
Conditions: dose 50; stomach tissue, 80% ethanol-treated rats; mean ± SE
Marks after values point to notes of the source that are not given here.
Measured property: NP-SH

// known answers, use as guide
| Compound | Study target | NP-SH |
| --- | --- | --- |
| O=C1NC=C(C(=O)c2ccc(N3CCCCC3)cc2)C(c2ccc([N+](=O)[O-])cc2)N1 (centres unmarked) | gastric mucosal non-protein sulfhydryls, induced by 80% ethanol | 4.56 ± 0.17***^b nmol/g |
| CNC(=C[N+](=O)[O-])NCCSCc1ccc(CN(C)C)o1 [Ranitidine, reference compound] | gastric mucosal non-protein sulfhydryls, induced by 80% ethanol | 4.24 ± 0.15**^b nmol/g |
| COc1ccccc1C1NC(=O)NC=C1C(=O)c1ccc(N2CCCCC2)cc1 (centres unmarked) | gastric mucosal non-protein sulfhydryls, induced by 80% ethanol | 4.61 ± 0.27**^b nmol/g |

QUERY: Quote NP-SH with test system gastric mucosal non-protein sulfhydryls, induced by 80% ethanol for CN(C)c1ccc(C2NC(=O)NC=C2C(=O)c2ccc(N3CCCCC3)cc2)cc1 (centres unmarked)
RESULT: 4.35 ± 0.11***^b nmol/g

QUERY: Send back gastric mucosal non-protein sulfhydryls, induced by 80% ethanol NP-SH of COc1ccc(C2NC(=O)NC=C2C(=O)c2ccc(N3CCCCC3)cc2)c(OC)c1OC (centres unmarked) only.
RESULT: 4.92 ± 0.30***^b nmol/g

###

Tested on: gastric mucosa of rats treated with 80% Ethanol
Assay: Histopathological evaluation of gastric tissue
Assay type: in vivo, Albino Wistar rats
Details: 50 mg/kg; FIG. 15B-15F
Method: Histopathological evaluation: Gastric tissue samples were fixed in neutral buffered formalin for 24 hours. Sections of gastric tissue were histopathologically examined to study the ulcerogenic and/or anti-ulcerogenic activity of compounds (N-3, N-8, N-11, and N-15). The tissues were fixed in 10% buffered formalin and processed using a VIP tissue processor. The processed tissues were embedded in paraffin blocks and sections about […] thick were cut using an American optical rotary microtome. […]
Measured property: Gastric section, effect on gastric mucosa (histology)

| Molecule | Test value |
| --- | --- |
| COc1ccccc1C1NC(=O)NC=C1C(=O)c1ccc(N2CCCCC2)cc1 (stereo not shown) | intact normal mucosa |
| CN(C)c1ccc(C2NC(=O)NC=C2C(=O)c2ccc(N3CCCCC3)cc2)cc1 (stereo not shown) | intact normal mucosa |
| COc1ccc(C2NC(=O)NC=C2C(=O)c2ccc(N3CCCCC3)cc2)c(OC)c1OC (stereo not shown) | intact normal mucosa |

###

Below, each entry is listed alongside its reported melting point.

# example entries with known answers
| Compound | Test value |
| --- | --- |
| COc1ccc(C2NC(=O)NC=C2C(=O)c2ccc(N3CCCCC3)cc2)c(OC)c1 (stereo not shown) | 135 to 137 °C |
| O=C1NC=C(C(=O)c2ccc(N3CCCCC3)cc2)C(c2ccccc2[N+](=O)[O-])N1 (stereo not shown) | 190 to 192 °C |
| COc1cc(C2NC(=O)NC=C2C(=O)c2ccc(N3CCCCC3)cc2)cc(OC)c1OC (stereo not shown) | 135 to 137 °C |

QUERY: State its melting point for this compound: COc1cc(OC)c(C2NC(=O)NC=C2C(=O)c2ccc(N3CCCCC3)cc2)c(OC)c1 (stereo not shown)
RESULT: 140 to 142 °C

###

Test system: Gastric lesions induced by necrotizing agents (80% ethanol, 0.2 mol/L NaOH or 25% NaCl)
Assay: Gastric lesions induced by necrotizing agents (cytoprotection)
Assay type: in vivo, Albino Wistar rats
Settings: 50 mg/kg, i.p; 30 min before necrotizing agent; mean ± SE
Label true (1) when Ulcer Index, 80% EtOH < 2; otherwise false (0).

| Molecule | Category label |
| --- | --- |
| CNC(=C[N+](=O)[O-])NCCSCc1ccc(CN(C)C)o1 [Ranitidine, reference compound] | true (1) |
| COc1ccccc1C1NC(=O)NC=C1C(=O)c1ccc(N2CCCCC2)cc1 (centres unmarked) | false (0) |
| CN(C)c1ccc(C2NC(=O)NC=C2C(=O)c2ccc(N3CCCCC3)cc2)cc1 (centres unmarked) | false (0) |
| O=C1NC=C(C(=O)c2ccc(N3CCCCC3)cc2)C(c2ccc([N+](=O)[O-])cc2)N1 (centres unmarked) | false (0) |

QUERY: For COc1ccc(C2NC(=O)NC=C2C(=O)c2ccc(N3CCCCC3)cc2)c(OC)c1OC (centres unmarked) , is the recorded Ulcer Index, 80% EtOH below the cut-off of 2?
RESULT: false (0)

###

Listed here: items and their measured Ulcer Index, 25% NaCl.
Tested on: Gastric lesions induced by necrotizing agents (80% ethanol, 0.2 mol/L NaOH or 25% NaCl)
Assay: Gastric lesions induced by necrotizing agents (cytoprotection)
Type: in vivo, Albino Wistar rats
Conditions: 50 mg/kg, i.p; 30 min before necrotizing agent; mean ± SE
API doc: respond with a numeric literal and nothing else, no unit.

QUERY: Read the entry O=C1NC=C(C(=O)c2ccc(N3CCCCC3)cc2)C(c2ccc([N+](=O)[O-])cc2)N1 (centres unmarked) and write its reported Ulcer Index, 25% NaCl.
RESULT: 1.66

QUERY: Return the recorded Ulcer Index, 25% NaCl value; entry: COc1ccc(C2NC(=O)NC=C2C(=O)c2ccc(N3CCCCC3)cc2)c(OC)c1OC (centres unmarked)
RESULT: 1.66

QUERY: In one line, give reported Ulcer Index, 25% NaCl of the entry CNC(=C[N+](=O)[O-])NCCSCc1ccc(CN(C)C)o1 [Ranitidine, reference compound] .
RESULT: 1.16

QUERY: Consider the molecule COc1ccccc1C1NC(=O)NC=C1C(=O)c1ccc(N2CCCCC2)cc1 (centres unmarked) and give its recorded Ulcer Index, 25% NaCl.
RESULT: 3.33

QUERY: Report Ulcer Index, 25% NaCl, nothing else, for this molecule: CN(C)c1ccc(C2NC(=O)NC=C2C(=O)c2ccc(N3CCCCC3)cc2)cc1 (centres unmarked)
RESULT: 3.83

###

Tested on: Hypothermic restraint stress-induced intraluminal bleeding and gastric lesion
Experiment: Hypothermic restraint stress-induced ulcers
Assay type: in vivo, Albino Wistar rats
Conditions: 12.5 mg/kg; hypothermic restraint 3 h; mean ± SE
Measured property: Intraluminal Bleeding Score
Answer as a number with no unit attached.

Solved cases (3 shown):
| Compound | Intraluminal Bleeding Score |
| --- | --- |
| COc1ccc(C2NC(=O)NC=C2C(=O)c2ccc(N3CCCCC3)cc2)c(OC)c1OC (stereo not shown) [Compound N-15] | 2.16 |
| CN(C)c1ccc(C2NC(=O)NC=C2C(=O)c2ccc(N3CCCCC3)cc2)cc1 (stereo not shown) [Compound N-11] | 3.66 |
| O=C1NC=C(C(=O)c2ccc(N3CCCCC3)cc2)C(c2ccc([N+](=O)[O-])cc2)N1 (stereo not shown) [Compound N-3] | 2.83 |

QUERY: Write down measured Intraluminal Bleeding Score (Hypothermic restraint stress-induced intraluminal bleeding and gastric lesion) for this compound. COc1ccccc1C1NC(=O)NC=C1C(=O)c1ccc(N2CCCCC2)cc1 (stereo not shown) [Compound N-8]
RESULT: 3.50

###

System: gastric secretion in pylorus-ligated Shay rats
Test: Pylorus-ligated rats: gastric secretion, acidity and lesion index
Assay type: in vivo, Albino Wistar rats
Details: 50 mg/kg, i.p.; 6 h after pylorus ligation; mean ± SE
Each entry gets 0 if its Titratable Acidity stays under 80 mEg/L, and 1 if its Titratable Acidity is 80 mEg/L or above.

Below, 3 molecules whose answers are already recorded.
| Molecule | Category label |
| --- | --- |
| O=C1NC=C(C(=O)c2ccc(N3CCCCC3)cc2)C(c2ccc([N+](=O)[O-])cc2)N1 (centres unmarked) | 1 |
| CNC(=C[N+](=O)[O-])NCCSCc1ccc(CN(C)C)o1 [Ranitidine, reference compound] | 0 |
| COc1ccccc1C1NC(=O)NC=C1C(=O)c1ccc(N2CCCCC2)cc1 (centres unmarked) | 1 |

QUERY: Tell me whether Titratable Acidity is at least 80 mEg/L here: COc1ccc(C2NC(=O)NC=C2C(=O)c2ccc(N3CCCCC3)cc2)c(OC)c1OC (centres unmarked)
RESULT: 0

QUERY: Could you tell me if the measured Titratable Acidity of CN(C)c1ccc(C2NC(=O)NC=C2C(=O)c2ccc(N3CCCCC3)cc2)cc1 (centres unmarked) reaches 80 mEg/L or more?
RESULT: 1

###

Tested on: total protein in stomach tissue, induced by 80% ethanol
Assay: Total protein in stomach tissue
Assay type: in vivo, Albino Wistar rats
Details: dose 12.5, 80% ethanol-treated rats, mean ± SE
Marks after values point to notes of the source that are not given here.
Measured property: Total Protein

QUERY: Please indicate Total Protein recorded for CN(C)c1ccc(C2NC(=O)NC=C2C(=O)c2ccc(N3CCCCC3)cc2)cc1 (stereo not shown) [Compound N-11]
RESULT: 53.89 ± 1.48*^b g/L

QUERY: Using known records, supply Total Protein for O=C1NC=C(C(=O)c2ccc(N3CCCCC3)cc2)C(c2ccc([N+](=O)[O-])cc2)N1 (stereo not shown) [Compound N-3]
RESULT: 58.68 ± 3.19*^b g/L

QUERY: For the compound COc1ccccc1C1NC(=O)NC=C1C(=O)c1ccc(N2CCCCC2)cc1 (stereo not shown) [Compound N-8] , report Total Protein.
RESULT: 45.90 ± 1.14^b g/L

QUERY: Assign Total Protein to the following record: COc1ccc(C2NC(=O)NC=C2C(=O)c2ccc(N3CCCCC3)cc2)c(OC)c1OC (stereo not shown) [Compound N-15]
RESULT: 71.45 ± 1.43*^b g/L
